# Tested on: mRNA
# assayNotes: mRNA encapsulation (modified Quant-iT RiboGreen assay)
# Assay type: physicochemical
# experimentalContext: RiboGreen, without vs with Triton X-100
# Description: The mRNA concentration and the percentage of encapsulated mRNA were determined using fluorescent-based Quant-iT RiboGreen RNA Reagent Kit (Life Technologies, Waltham, MA) as described previously. […] The fluorescence intensity of mRNA-RiboGreen reagent complex (excitation at 485 nm and emission at 530 nm) was detected using a microplate reader. The ratio of fluorescence without and with Triton X-100 were used to calculate the percentage of encapsulated mRNA. […]
Starred links: 1 amine or outer side, 2 acyl side, 3 side chain; linkers in the order of their positions; H or OH if unused. Non-standard residues stand in square brackets, D forms with d. Residues, ends and D or L forms follow the SMILES beside them. *: point of attachment. Gly(N-(3-decanoyloxypropyl)) = CCCCCCCCCC(=O)OCCCNCC(=O)O; N(3-lauroyloxypropyl)Gly = CCCCCCCCCCCC(=O)OCCCNCC(=O)O; N(2-decanoyloxyethyl)Gly = CCCCCCCCCC(=O)OCCNCC(=O)O; N(3-imidazol-1-ylpropyl)Gly = O=C(O)CNCCCn1ccnc1; Gly(N-3-morpholinopropyl) = O=C(O)CNCCCN1CCOCC1; X4 = CCCCCCCCCCCC(=O)OCCN(CC(=O)[*:2])[*:1]; N(2-ethylhexyl)Gly = CCCCC(CC)CNCC(=O)O; X1 = CCCCC(CC)CSSCCN(CC(=O)[*:2])[*:1]; N(CH(CH2OH)2)Gly = O=C(O)CNC(CO)CO; N(octyl)Gly = CCCCCCCCNCC(=O)O; NDecylGly = CCCCCCCCCCNCC(=O)O; NHexGly = CCCCCCNCC(=O)O; For = O=C*
Form field: mean percent encapsulation of RNA (one value per entry).
Reply with just the number (in %).

Example cases with answers are listed next.
compound	mean percent encapsulation of RNA [%]
CCCCCCCCCC(=O)OCCCN(CC(N)=O)C(=O)CN(CCCOC(=O)CCCCCCCCC)C(=O)CN(CC(CC)CCCC)C(=O)CN(CCCOC(=O)CCCCCCCCC)C(=O)CN(CCCOC(=O)CCCCCCCCC)C(=O)CN(CC(CC)CCCC)C(=O)CNC(CO)CO (stereo not drawn) [Compound 102] (H-[N(CH(CH2OH)2)Gly][N(2-ethylhexyl)Gly][Gly(N-(3-decanoyloxypropyl))][Gly(N-(3-decanoyloxypropyl))][N(2-ethylhexyl)Gly][Gly(N-(3-decanoyloxypropyl))][Gly(N-(3-decanoyloxypropyl))]-NH2)	47.1
CCCCCCCCCCCC(=O)OCCCN(CC(=O)N(CC(=O)N(CC(=O)N(CCCOC(=O)CCCCCCCCCCC)CC(=O)N(CC(N)=O)CC(CC)CCCC)CC(CC)CCCC)CC(CC)CCCC)C(=O)CN(CC(CC)CCCC)C(=O)CNC(CO)CO (stereo not drawn) [Compound 6] (H-[N(CH(CH2OH)2)Gly][N(2-ethylhexyl)Gly][N(3-lauroyloxypropyl)Gly][N(2-ethylhexyl)Gly][N(2-ethylhexyl)Gly][N(3-lauroyloxypropyl)Gly][N(2-ethylhexyl)Gly]-NH2)	77.1
CCCCCCCC(=O)OCCCN(C=O)CC(=O)N(CCCOC(=O)CCCCCCC)CC(=O)N(CCc1ccccc1)CC(=O)N(CC(=O)N(CCCN1CCOCC1)CC(=O)N(CCCOC(=O)CCCCCCC)CC(=O)N(CCc1ccccc1)CC(=O)N(CCCOC(=O)CCCCCCC)CC(=O)N(CC(N)=O)CC(CC)CCCC)CC(CC)CCCC (stereo not drawn)	82.1

Data request: Write down mean percent encapsulation of RNA measured for item CCCCCCCCCC(=O)OCCCN(CC(=O)N(CC(N)=O)CC(CC)CCCC)C(=O)CN(CCCCCCCC)C(=O)CN(CC(CC)CCCC)C(=O)CN(CCCOC(=O)CCCCCCCCC)C(=O)CN(CCCCCCCC)C(=O)CNC(CO)CO (stereo not drawn) [Compound 32] (H-[N(CH(CH2OH)2)Gly][N(octyl)Gly][Gly(N-(3-decanoyloxypropyl))][N(2-ethylhexyl)Gly][N(octyl)Gly][Gly(N-(3-decanoyloxypropyl))][N(2-ethylhexyl)Gly]-NH2)
Data returned: 59.3

Data request: Write down mean percent encapsulation of RNA measured for item CCCCCCCCCCCC(=O)OCCCN(CC(=O)N(CCCOC(=O)CCCCCCCCCCC)CC(=O)N(CCCCCC)CC(=O)N(CCCOC(=O)CCCCCCCCCCC)CC(=O)N(CCCOC(=O)CCCCCCCCCCC)CC(=O)N(CCCCCC)CC(N)=O)C(=O)CNCCCn1ccnc1 [Compound 73] (H-[N(3-imidazol-1-ylpropyl)Gly][N(3-lauroyloxypropyl)Gly][N(3-lauroyloxypropyl)Gly][NHexGly][N(3-lauroyloxypropyl)Gly][N(3-lauroyloxypropyl)Gly][NHexGly]-NH2)
Data returned: 66.2

Data request: Write down mean percent encapsulation of RNA measured for item CCCCCCCCCC(=O)OCCN(CC(=O)N(CCOC(=O)CCCCCCCCC)CC(=O)N(CCSSCC(CC)CCCC)CC(=O)N(CCOC(=O)CCCCCCCCC)CC(=O)N(CCOC(=O)CCCCCCCCC)CC(=O)N(CCSSCC(CC)CCCC)CC(N)=O)C(=O)CNC(CO)CO (stereo not drawn) [Compound 135] (H-[N(CH(CH2OH)2)Gly][N(2-decanoyloxyethyl)Gly][N(2-decanoyloxyethyl)Gly][X1][N(2-decanoyloxyethyl)Gly][N(2-decanoyloxyethyl)Gly][X1]-NH2)
Data returned: 91.4

Data request: Write down mean percent encapsulation of RNA measured for item CCCCCCCCCCN(C=O)CC(=O)N(CCCOC(=O)CCCCCCCCC)CC(=O)N(CC(=O)N(CCCN1CCOCC1)CC(=O)N(CC(=O)N(CCCOC(=O)CCCCCCCCC)CC(=O)N(CCCCCCCCCC)CC(N)=O)CC(CC)CCCC)CC(CC)CCCC (stereo not drawn) [Compound 117] (For-[NDecylGly][Gly(N-(3-decanoyloxypropyl))][N(2-ethylhexyl)Gly][Gly(N-3-morpholinopropyl)][N(2-ethylhexyl)Gly][Gly(N-(3-decanoyloxypropyl))][NDecylGly]-NH2)
Data returned: 49.8

Data request: Write down mean percent encapsulation of RNA measured for item CCCCCCCCCCCC(=O)OCCN(CC(=O)N(CC(=O)N(CC(=O)N(CCOC(=O)CCCCCCCCCCC)CC(=O)N(CC(N)=O)CC(CC)CCCC)CC(CC)CCCC)CC(CC)CCCC)C(=O)CN(CC(CC)CCCC)C(=O)CNC(CO)CO (stereo not drawn) [Compound 3] (H-[N(CH(CH2OH)2)Gly][N(2-ethylhexyl)Gly][X4][N(2-ethylhexyl)Gly][N(2-ethylhexyl)Gly][X4][N(2-ethylhexyl)Gly]-NH2)
Data returned: 63.8

Data request: Write down mean percent encapsulation of RNA measured for item CCCCCCCCCC(=O)OCCCN(CC(=O)N(CC(=O)N(CC(=O)N(CCCOC(=O)CCCCCCCCC)CC(=O)N(CC(N)=O)CC(CC)CCCC)CC(CC)CCCC)CC(CC)CCCC)C(=O)CN(CC(CC)CCCC)C(=O)CNCCCn1ccnc1 (stereo not drawn) [Compound 107] (H-[N(3-imidazol-1-ylpropyl)Gly][N(2-ethylhexyl)Gly][Gly(N-(3-decanoyloxypropyl))][N(2-ethylhexyl)Gly][N(2-ethylhexyl)Gly][Gly(N-(3-decanoyloxypropyl))][N(2-ethylhexyl)Gly]-NH2)
Data returned: 96.1

From: patent US20260373248A1
